Recorded Vmax, one value per entry.
- Substrate: O=[N+]([O-])c1ccc(Cl)c2nonc12
- Run Description: purified protein
- Assay type: biochemical, Oryza sativa
- Condition Parameters: 1.0 mM GSH fixed, NBD-Cl 0.1-1.0 mM, 25 °C, apparent Km, Km above tested range
Please give a number only; it is taken to be in µM/min/mg.

For orientation, consider the following solved cases.
OsGSTU17 (Oryza sativa Japonica Group; F162A) (protein, about 25 kDa subunit; dimeric enzyme; mutants L112A and W165A expressed at 20 °C) MAADKGVKVFGMWASPMAIRVEWALRLKGVDYEYVDEDLANKSEALLRHNPVTKKVPVLVHDGKPLAESTVIVEYIDEAWKHGYPIMPSDPFDRAQARFWARFAEEKCNAALYPIFMTTGEEQRKLVHEAQQCLKTLETALEGKKFFGGDAFGYLDIVTGWAAYWLPVIEEACGVEVVTDEALPLMKAWFDRVLAVDAVKAVLPPRDKLVALNKARREQILSA
0.869
OsGSTU17 (Oryza sativa Japonica Group; W161A) (protein, about 25 kDa subunit; dimeric enzyme; mutants L112A and W165A expressed at 20 °C) MAADKGVKVFGMWASPMAIRVEWALRLKGVDYEYVDEDLANKSEALLRHNPVTKKVPVLVHDGKPLAESTVIVEYIDEAWKHGYPIMPSDPFDRAQARFWARFAEEKCNAALYPIFMTTGEEQRKLVHEAQQCLKTLETALEGKKFFGGDAFGYLDIVTGAFAYWLPVIEEACGVEVVTDEALPLMKAWFDRVLAVDAVKAVLPPRDKLVALNKARREQILSA
0.594

// next entry
Inquiry: Give the measured Vmax of OsGSTU17 (Oryza sativa Japonica Group; L112A) (protein, about 25 kDa subunit; dimeric enzyme; mutants L112A and W165A expressed at 20 °C) MAADKGVKVFGMWASPMAIRVEWALRLKGVDYEYVDEDLANKSEALLRHNPVTKKVPVLVHDGKPLAESTVIVEYIDEAWKHGYPIMPSDPFDRAQARFWARFAEEKCNAAAYPIFMTTGEEQRKLVHEAQQCLKTLETALEGKKFFGGDAFGYLDIVTGWFAYWLPVIEEACGVEVVTDEALPLMKAWFDRVLAVDAVKAVLPPRDKLVALNKARREQILSA .
Reply text: 0.896
